Tested on: HT-29
Assay: Antiproliferative activity against human HT-29 cells after 2 days by MTT assay
Format: functional, cell-based
Conditions: HT-29, 48 h
Decision: IC50 beneath 20 nM gives y; IC50 meeting or exceeding 20 nM gives n.

Here's what some known entries look like.
>>> qualitative_label("COc1ccc(/C=C\\c2cc(OC)c(OC)c(OC)c2)cc1NC(=O)Oc1cccc(Cl)c1")
"y"
>>> qualitative_label("COc1ccc(/C=C\\c2cc(OC)c(OC)c(OC)c2)cc1NC(=O)Oc1ccccc1C")
"n"
>>> qualitative_label("COc1ccc(/C=C\\c2cc(OC)c(OC)c(OC)c2)cc1NC(=O)Oc1ccc(Cl)cc1")
"n"
>>> qualitative_label("COc1ccc(/C=C\\c2cc(OC)c(OC)c(OC)c2)cc1NC(=O)Oc1ccc(Cl)c(C)c1")
"y"
>>> qualitative_label("COc1ccc(/C=C\\c2cc(OC)c(OC)c(OC)c2)cc1NC(=O)Oc1ccccc1Cl")
"y"
>>> qualitative_label("COc1ccc(/C=C\\c2cc(OC)c(OC)c(OC)c2)cc1NC(=O)Oc1cccc(Br)c1")
"y"
>>> qualitative_label("COc1ccc(/C=C\\c2cc(OC)c(OC)c(OC)c2)cc1NC(=O)Oc1ccc(C)c(Cl)c1")
"n"
>>> qualitative_label("COc1ccc(/C=C\\c2cc(OC)c(OC)c(OC)c2)cc1NC(=O)Oc1cccc(C)c1")
"n"

Could you now consider this next compound?
Take the compound COc1ccc(/C=C\c2cc(OC)c(OC)c(OC)c2)cc1NC(=O)Oc1cccc(Cl)c1C and say whether its IC50 is less than 20 nM.
n

====

# Lookup of reported IC50 keyed by entry
System: HEK293
Test: Antiproliferative activity against HEK293 cells after 2 days by MTT assay
Format: cell-based
Settings: Homo sapiens, HEK293, 48 h
Remember to quote the unit after the number.

Example entries and their recorded answers appear below.
>>> experimental_value("COc1ccc(/C=C\\c2cc(OC)c(OC)c(OC)c2)cc1N")
"7.1 nM"
>>> experimental_value("COc1ccc(/C=C\\c2cc(OC)c(OC)c(OC)c2)cc1NC(=O)Oc1ccccc1Cl")
"41 nM"
>>> experimental_value("COc1ccc(/C=C\\c2cc(OC)c(OC)c(OC)c2)cc1NC(=O)Oc1cc(C)cc(C)c1")
"150 nM"
>>> experimental_value("COc1ccc(/C=C\\c2cc(OC)c(OC)c(OC)c2)cc1NC(=O)Oc1cccc(C)c1C")
"80 nM"
>>> experimental_value("COc1ccc(/C=C\\c2cc(OC)c(OC)c(OC)c2)cc1NC(=O)Oc1ccc(Br)cc1")
"19 nM"

For the compound COc1ccc(/C=C\c2cc(OC)c(OC)c(OC)c2)cc1NC(=O)Oc1ccccc1 , give its reported IC50.
3.3 nM

For the compound COc1ccc(/C=C\c2cc(OC)c(OC)c(OC)c2)cc1NC(=O)Oc1ccc(C)c(C)c1 , give its reported IC50.
97 nM

For the compound COc1ccc(/C=C\c2cc(OC)c(OC)c(OC)c2)cc1NC(=O)Oc1cccc(Cl)c1 , give its reported IC50.
14.5 nM

For the compound COc1ccc(/C=C\c2cc(OC)c(OC)c(OC)c2)cc1NC(=O)Oc1cccc(Cl)c1C , give its reported IC50.
14 nM

For the compound COc1ccc(/C=C\c2cc(OC)c(OC)c(OC)c2)cc1NC(=O)Oc1ccccc1OC , give its reported IC50.
160 nM

For the compound COc1ccc(/C=C\c2cc(OC)c(OC)c(OC)c2)cc1NC(=O)Oc1ccc(C)c(Cl)c1 , give its reported IC50.
7 nM

For the compound COc1ccc(/C=C\c2cc(OC)c(OC)c(OC)c2)cc1NC(=O)Oc1ccccc1Br , give its reported IC50.
8 nM
